molecular target: PHF (paired helical filaments) isolated from the brain of an Alzheimer's disease patient (Homo sapiens); experiment: Competitive binding assay: displacement of primulin fluorescence from PHFs; settings: concentration that reduces the signal of 1 μM primulin to 50% of control; relative affinity; read-out: P50
Sequence (P10636 623-708 limits assumed): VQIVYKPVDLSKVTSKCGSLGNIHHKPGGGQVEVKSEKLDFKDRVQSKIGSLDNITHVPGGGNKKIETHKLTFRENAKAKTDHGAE
pIC50: −log10 of the molar value.
Readout Name: pIC50

Compound	Result
CN(C)CCOc1ccc2nc(-c3ccc(NC(=O)c4ccc([N+](=O)[O-])c(C(F)(F)F)c4)cc3)sc2c1 [ABDMAA-02]	< 6.00
Cc1ccc2nc(-c3ccc(NC(=O)c4cc(F)c(O)c(F)c4)cc3)cn2c1	< 6.00
COc1cc(F)c(C(=O)Nc2ccc(-c3cn4cc(C)ccc4n3)cc2)c(F)c1	< 6.00
Cc1ccc2nc(-c3ccc(NC(=O)c4cccc(O)c4)cc3)sc2c1	~5.92
O=C(Nc1ccc(-c2nc3ccc(O)cc3s2)cc1)c1cc(OC(F)(F)F)ccc1O	< 6.00

# input for lookup
input: Fill blank: measured pIC50 of the compound O=C(Nc1ccc(-c2nc3ccc(O)cc3s2)cc1)c1ccc(O)cc1C(F)(F)F is ____.
output: < 6.00
